test system: MDA-N; test: NCI tumour cell line growth inhibition, 48 h
TGI overview

Below are worked cases with known answers.
| MOLECULE | TGI |
| --- | --- |
| COc1ccc(NC(=O)CC(=O)NNC(Sc2ccccc2)c2cc(N=Nc3ccc(Br)cc3)ccc2O)cc1 (stereo unspecified) | > 10 µM |
| O=C(O)c1c(Cl)c(Cl)c(Cl)c(Cl)c1C(=O)Nc1ccc2cn[nH]c2c1 | > 100 µM |
| C[C@@H]1CCC2C(C)(C)C(/C=C\C=O)C3(C)OC213 (stereo partly specified) | > 100 µM |
| NS(=O)(=O)c1nnc(NC(=O)c2cccc([N+](=O)[O-])c2)s1 | > 100 µM |
| Nc1ncnc2c1ncn2-c1ccc([N+](=O)[O-])cn1 | > 100 µM |

Briefly, TGI measured for "NC(N)=NS(=O)(=O)c1ccc(NNC(=O)c2cccc3c(=O)c4ccccc4[nH]c23)cc1" : 60.9 µM

Briefly, TGI measured for Cc1ccc(OCC2=NC3S/C(=C/c4ccc([N+](=O)[O-])o4)C(=O)N3N2)cc1 (stereo unspecified) : 20.7 µM

Briefly, TGI measured for "CC(=O)OC(C)(C)/C=C/C(=O)[C@](C)(O)[C@H]1[C@H](O)C[C@@]2(C)[C@@H]3CC=C4[C@@H](C=C(O)C(=O)C4(C)C)[C@]3(C)C(=O)C[C@]12C" : 1.57 µM

Briefly, TGI measured for "CCO/C(O)=C(/C(=N)N1CCCC1)C(=O)Nc1cccc(Cl)c1" : > 100 µM

Briefly, TGI measured for "CCOC(=O)c1sc2c(c1O)c(=O)n(-c1ccccc1)c(=S)n2-c1ccccc1" : > 100 µM

Briefly, TGI measured for "CSc1nn(C)cc2nc(C)nc1-2" : > 100 µM
